# Tested on: Wnt5a (protein binding on small-molecule microarray)
# measurement-description: small molecules binding Wnt5a protein – biophysical, small-molecule microarray, 635/667 nm fluorescence, primary screen (AID 1142);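 also: fluorescence read at 667 nm with signal to noise per printed feature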
# protocol-conditions: 635 nm fluorescence, higher = more signal
Catalogue of molecules with associated composite z-score
No unit in the answer, please; the number alone is enough.

Example results:
molecule	target-or-test-system	composite z-score
CCCNC(=O)[C@@]1(C)c2ccccc2C(=O)N(Cc2cc(C(F)(F)F)cc(C(F)(F)F)c2)[C@H]1c1ccc(CO)cc1	Wnt5a (protein binding on small-molecule microarray)	-0.332
Cc1ccc(S[C@]2(C(=O)NCC(F)(F)F)CC(=O)N(C3Cc4ccccc4C3)[C@@H]2c2ccc(CO)cc2I)cc1	Wnt5a (protein binding on small-molecule microarray)	-0.465
CN1C(=O)C2C(C1=O)C1C=C(c3ccc(CO)cc3)C2C(C2CC2)N1Cc1cc2c(cc1Br)OCO2 (centres undefined)	Wnt5a (protein binding on small-molecule microarray)	0.164

Continue with the molecule presented below.
[in] Record request: composite z-score value, item O=C1OCC=C[C@H]2OC34C=CCN(CCN5CCOCC5)C(=O)[C@H]3N(CCCCCCO)C(=O)[C@@H]4[C@@H]12 (some centres undefined)
[out] 0.0272

----------
# measurement-description: small molecules captured by biotinylated probe aFSTL3 – biochemical, small-molecule microarray, fluorescence 635/667, stem cell growth factor project, primary screen (AID 1064);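 also: measures binding of the biotinylated anti-FSTL3 antibody to printed compounds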
# protocol-conditions: higher = more signal
Please note: 1 (yes) applies when composite z-score is -0.2 or greater, and 0 (no) applies otherwise.

Consider the following illustrative entries.
compound	group-label
CC(C)(C)OC(=O)CC[C@@]1(C(=O)NCC(O)CO)N=C(c2ccc(OCCCO)cc2)O[C@@H]1c1ccccc1 (some centres not stated)	1 (yes)
O=C(NCc1ccccc1)[C@@H]1c2ccccc2C(=O)N(C2CCCCC2)[C@H]1c1ccc(CO)cc1	0 (no)
O=C1OCCC/C=C\[C@H]2OC34C=CCN(CCN5CCOCC5)C(=O)[C@H]3N(CCO)C(=O)[C@@H]4C12 (some centres not stated)	1 (yes)

Shift focus to the following entry.
[in] Does the compound CC(C)NC(=O)[C@@]1(c2ccc([N+](=O)[O-])cc2)CC(=O)N(C(C)C)[C@@H]1c1ccc(CO)cc1 have recorded composite z-score that is -0.2 or more?
[out] 1 (yes)

----------
# Test system: PRMT1 (protein arginine N-methyltransferase 1)
# measurement-description: small molecules binding arginine methyltransferase PRMT1 – biochemical, small-molecule microarray, 635 nm fluorescence, primary screen (AID 1088);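 also: binding of Prmt1 protein to compounds spotted on small-molecule microarray slides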
# protocol-conditions: higher = more signal
Catalogue of compounds with associated composite z-score
No unit in the answer, please; the number alone is enough.

Example results:
compound	composite z-score
C=CCC(OC(C)=O)[C@@H]1[C@@H](N(Cc2ccc(-c3cccc(C(F)(F)F)c3)o2)C(=O)c2ccc(C)cc2)c2cc(OCCCO)ccc2N1C(=O)c1ccc2ccccc2n1 (stereo partly specified)	-0.0077
NC(=O)NCC#Cc1ccc2c(c1)[C@]1(C(=O)N2)[C@H](c2ccccc2OCCO)N2[C@H](c3ccccc3)[C@H](c3ccccc3)OC(=O)[C@H]2[C@@H]1C(=O)N1CCCCCCC1	1.55
O=C1O[C@@H](c2ccccc2)[C@@H](c2ccccc2)N2[C@@H](c3ccc(O)cc3)[C@]3(C(=O)Nc4ccccc43)[C@@H](C(=O)NC[C@H](O)c3ccccc3)[C@H]12	0.867

[in] Record request: composite z-score value, item CCCNC(=O)[C@@]1(C)c2ccccc2C(=O)N(Cc2ccc(OC(F)(F)F)cc2)[C@H]1c1ccc(CO)cc1
[out] 0.294

[in] Record request: composite z-score value, item CN(C)CCCC[C@@H]1NC(=O)[C@@H]2C[C@H](C(=O)NCCCCCCN)[C@H](c3ccc(O)cc3)N2C1=O
[out] 1.18

[in] Record request: composite z-score value, item Cc1ccc([C@H]2C(C(=O)O)=C[C@@H](C(C)C)N2S(=O)(=O)c2ccc(C)cc2)cc1
[out] 0.425

----------
Catalogue of compounds with associated z-score
# measurement-description: resazurin metabolic signal in A549 cells – cell-based, resazurin fluorescence, 24 h, PK04 Diversity Set, profiling panel (AID 1171); also: test concentration not given here
# protocol-conditions: A549 viability, higher = more signal, called active from +8 up or from −8 down
No unit in the answer, please; the number alone is enough.

Example results:
compound	z-score
C=C[C@H](C)[C@H](O)c1ccc(OCCO)cc1	-0.276
COCCOC(=O)N1C(=O)[C@@]2(c3cc(C#CC4(O)CCCCCC4)ccc31)[C@H](c1ccc(O)cc1)N1[C@H](c3ccccc3)[C@H](c3ccccc3)OC(=O)[C@H]1[C@@H]2C(=O)N1CCc2cc(OC)c(OC)cc2C1	1.65
O=C1C2C=CC(C(O)c3ccc(B(O)O)cc3)N(Nc3ccc([N+](=O)[O-])cc3)C2C(=O)N1c1ccccc1 (configuration not stated)	0.0312
COCC1C2CC[C@H]3C(OCc4ccc(F)cc4C(F)(F)F)OC[C@]4(C)[C@H]3C2=C(CN4C(=O)OC(C)(C)C)[C@H](C)C1COC (some centres not stated)	-0.546
CC(C)[Si]1(C(C)C)O[C@@H](c2ccccc2)c2cc(-c3ccc(-c4ccc(Cl)c(Cl)c4)o3)nc(CCc3ccccc3)c21	-0.748
COc1ccc([Si](C)(C)[C@@H]2[C@@H](CCO)O[C@]3(C(=O)N(Cc4cccc(N5CCCCC5=O)c4)c4ccccc43)[C@H]2C)cc1	-0.55

[in] Record request: z-score value, item Cc1ccc(S[C@]2(C(=O)NCCCN(C)C)CC(=O)N(Cc3ccccc3)[C@@H]2c2ccc(CO)cc2)cc1
[out] 0.516

----------
# measurement-description: binders from COS7 lysate, DM2A8 probe, primary screen, torsin A project, cell lysate, small-molecule microarray, fluorescence 635/667 (AID 1065)
# protocol-conditions: higher = more signal, COS7 lysate expressing mutant human TOR1A
composite z-score class ranges: label 0 (below -0.002), label 1 (-0.002 to below 0.8), label 2 (0.8 or more)

compound	group-label
CC(C)(C)OC(=O)CC[C@]1(C(=O)NCC(O)CO)N=C(c2ccc(OCCCO)cc2)O[C@H]1c1ccccc1CN=[N+]=[N-] (some centres undefined)	label 2

[in] Using the reported composite z-score, which band applies to O=C1OCCC/C=C\[C@H]2OC34C=CCN(CCN5CCOCC5)C(=O)[C@H]3N(CCO)C(=O)[C@@H]4C12 (some centres undefined) ?
[out] label 0

[in] Using the reported composite z-score, which band applies to COCCCNC(=O)[C@@]1(C)c2ccccc2C(=O)N(Cc2ccccc2)[C@H]1c1ccc(CO)cc1 ?
[out] label 1

[in] Using the reported composite z-score, which band applies to COc1ccc([Si](C)(C)[C@@H]2[C@@H](CC(=O)N3Cc4ccccc4C[C@H]3CO)O[C@]3(C(=O)N(Cc4cccc(N5C(=O)COc6ccccc65)c4)c4ccccc43)[C@H]2C)cc1 ?
[out] label 1

[in] Using the reported composite z-score, which band applies to CN(C)CCCCCCNC(=O)[C@@H]1C[C@@H]2C(=O)N[C@@H](Cc3ccccc3)C(=O)N2[C@@H]1c1cccc(OCCO)c1 ?
[out] label 2

----------
# measurement-description: changes in parasitized red cell lysis, either direction – P. falciparum Indochina, OD700, 3 h, PSAC antagonist project, primary screen (AID 1156)
# protocol-conditions: P. falciparum-infected erythrocytes, osmotic lysis, higher = more signal, called active from +8 up or from −8 down
measured-quantity: z-score
No unit in the answer, please; the number alone is enough.

Example results:
molecule	z-score
COc1ccc(C#Cc2ccc3c(c2)[C@]2(C(=O)N3)[C@H](c3ccc(OCCO)cc3)N3[C@H](c4ccccc4)[C@H](c4ccccc4)OC(=O)[C@H]3[C@@H]2C(=O)Nc2nc3ccccc3s2)cc1	2.04
C=C(COC)C(=O)CC[C@H](OC(=O)c1cccnc1)c1ccccc1OCCO	0.0448
O=S(=O)(NCCCO)c1ccc(Br)cc1	-1.21
[N-]=[N+]=NCc1ccccc1C[C@]1(C(N)=O)N=C(c2ccc(OCCCO)cc2)O[C@H]1c1ccccc1N=[N+]=[N-]	2.52

[in] Record request: z-score value, item Oc1ccc2cc[n+](Cc3cccc(OC(F)(F)F)c3)cc2c1
[out] 0.621

[in] Record request: z-score value, item COc1ccc([Si](C)(C)[C@H]2[C@H](CC(=O)N3Cc4ccccc4C[C@H]3CO)O[C@@]3(C(=O)N(Cc4cccc(I)c4)c4ccccc43)[C@@H]2C)cc1
[out] 2.14

[in] Record request: z-score value, item COCCCNC(=O)[C@@]1(C)c2ccccc2C(=O)N(Cc2ccccc2)[C@H]1c1ccc(CO)cc1
[out] 2.67

[in] Record request: z-score value, item O=C1OCCC/C=C\[C@H]2OC34C=CCN(CCN5CCOCC5)C(=O)[C@H]3N(CCO)C(=O)[C@@H]4C12 (some centres undefined)
[out] 0.723

[in] Record request: z-score value, item OCCCc1cc[n+](Cc2cccc(OC(F)(F)F)c2)cc1
[out] 1.54
